System: Escherichia coli
assay_comment: Antibacterial activity against mucosa-associated Escherichia coli isolate HM454 isolated from patient with irritable bowel syndrome or sporadic polyps after 24 hrs by Etest antibiotic concentration gradient method
Assay type: functional
measurement_conditions: isolate HM454, 24 h
readout_type: MIC

{"columns": ["compound", "readout_type", "observed_value"],
 "data": [
  ["CO[C@H]1/C=C/O[C@@]2(C)Oc3c(C)c(O)c4c(O)c(c(/C=N/N5CCN(C)CC5)c(O)c4c3C2=O)NC(=O)/C(C)=C\\C=C\\[C@H](C)[C@H](O)[C@@H](C)[C@@H](O)[C@@H](C)[C@H](OC(C)=O)[C@@H]1C [RIFAMPIN]", "MIC", "≥ 4 µg/mL"],
  ["O=C(O)c1cn(C2CC2)c2cc(N3CCNCC3)c(F)cc2c1=O [CIPROFLOXACIN]", "MIC", "≤ 1 µg/mL"],
  ["CC[C@H]1OC(=O)[C@H](C)[C@@H](O[C@H]2C[C@@](C)(OC)[C@@H](O)[C@H](C)O2)[C@H](C)[C@@H](O[C@@H]2O[C@H](C)C[C@H](N(C)C)[C@H]2O)[C@](C)(O)C[C@@H](C)CN(C)[C@H](C)[C@@H](O)[C@]1(C)O [AZITHROMYCIN]", "MIC", "≤ 2 µg/mL"],
  ["CC[C@H]1OC(=O)[C@H](C)[C@@H](O[C@H]2C[C@@](C)(OC)[C@@H](O)[C@H](C)O2)[C@H](C)[C@@H](O[C@@H]2O[C@H](C)C[C@H](N(C)C)[C@H]2O)[C@](C)(OC)C[C@@H](C)C(=O)[C@H](C)[C@@H](O)[C@]1(C)O [CLARITHROMYCIN]", "MIC", "≥ 16 µg/mL"]
]}

###

compounds and their reported MIC
Test system: Escherichia coli
assay_comment: Antibacterial activity Escherichia coli isolate HM413 isolated from ileo-colonic mucosal biopsies of patient with Crohn's disease after 24 hrs by Etest antibiotic concentration gradient method
Assay type: functional
measurement_conditions: isolate HM413, 24 h

{"columns": ["chemical_structure", "MIC"],
 "data": [
  ["COc1cc(Cc2cnc(N)nc2N)cc(OC)c1OC", "≤ 4 µg/mL"],
  ["CN(C)[C@@H]1C(O)=C(C(N)=O)C(=O)[C@@]2(O)C(O)=C3C(=O)c4c(O)cccc4[C@@](C)(O)[C@H]3C[C@@H]12", "≤ 4 µg/mL"],
  ["O=C(O)c1cn(C2CC2)c2cc(N3CCNCC3)c(F)cc2c1=O", "≤ 1 µg/mL"],
  ["CC[C@H]1OC(=O)[C@H](C)[C@@H](O[C@H]2C[C@@](C)(OC)[C@@H](O)[C@H](C)O2)[C@H](C)[C@@H](O[C@@H]2O[C@H](C)C[C@H](N(C)C)[C@H]2O)[C@](C)(O)C[C@@H](C)CN(C)[C@H](C)[C@@H](O)[C@]1(C)O", "≤ 2 µg/mL"],
  ["CC[C@H]1OC(=O)[C@H](C)[C@@H](O[C@H]2C[C@@](C)(OC)[C@@H](O)[C@H](C)O2)[C@H](C)[C@@H](O[C@@H]2O[C@H](C)C[C@H](N(C)C)[C@H]2O)[C@](C)(OC)C[C@@H](C)C(=O)[C@H](C)[C@@H](O)[C@]1(C)O", "≥ 16 µg/mL"],
  ["CO[C@H]1/C=C/O[C@@]2(C)Oc3c(C)c(O)c4c(O)c(c(/C=N/N5CCN(C)CC5)c(O)c4c3C2=O)NC(=O)/C(C)=C\\C=C\\[C@H](C)[C@H](O)[C@@H](C)[C@@H](O)[C@@H](C)[C@H](OC(C)=O)[C@@H]1C", "2 µg/mL"]
]}

###

System: Escherichia coli
assay_comment: Antibacterial activity against Escherichia coli isolate HM580 isolated from colonic mucosal biopsies of patient with Crohn's disease after 24 hrs by Etest antibiotic concentration gradient method
Format: functional
measurement_conditions: isolate HM580, 24 h
readout_type: MIC

{"columns": ["chemical_structure", "observed_value"],
 "data": [
  ["CO[C@H]1/C=C/O[C@@]2(C)Oc3c(C)c(O)c4c(O)c(c(/C=N/N5CCN(C)CC5)c(O)c4c3C2=O)NC(=O)/C(C)=C\\C=C\\[C@H](C)[C@H](O)[C@@H](C)[C@@H](O)[C@@H](C)[C@H](OC(C)=O)[C@@H]1C", "≥ 4 µg/mL"],
  ["CC[C@H]1OC(=O)[C@H](C)[C@@H](O[C@H]2C[C@@](C)(OC)[C@@H](O)[C@H](C)O2)[C@H](C)[C@@H](O[C@@H]2O[C@H](C)C[C@H](N(C)C)[C@H]2O)[C@](C)(O)C[C@@H](C)CN(C)[C@H](C)[C@@H](O)[C@]1(C)O", "≤ 2 µg/mL"],
  ["CC[C@H]1OC(=O)[C@H](C)[C@@H](O[C@H]2C[C@@](C)(OC)[C@@H](O)[C@H](C)O2)[C@H](C)[C@@H](O[C@@H]2O[C@H](C)C[C@H](N(C)C)[C@H]2O)[C@](C)(OC)C[C@@H](C)C(=O)[C@H](C)[C@@H](O)[C@]1(C)O", "≥ 16 µg/mL"],
  ["CN(C)[C@@H]1C(O)=C(C(N)=O)C(=O)[C@@]2(O)C(O)=C3C(=O)c4c(O)cccc4[C@@](C)(O)[C@H]3C[C@@H]12", "≤ 4 µg/mL"],
  ["O=C(O)c1cn(C2CC2)c2cc(N3CCNCC3)c(F)cc2c1=O", "≤ 1 µg/mL"],
  ["COc1cc(Cc2cnc(N)nc2N)cc(OC)c1OC", "≤ 4 µg/mL"]
]}

###

assay_comment: Cmax in healthy human at 160 mg administered orally
measurement_conditions: in vivo, po
readout_type: Cmax (ng/mL)

{"columns": ["molecule", "readout_type", "observed_value"],
 "data": [
  ["COc1cc(Cc2cnc(N)nc2N)cc(OC)c1OC [TRIMETHOPRIM]", "Cmax", 2300]
]}

###

molecules and their reported MIC
System: Escherichia coli
assay_comment: Antibacterial activity Escherichia coli isolate HM419 isolated from ileo-colonic mucosal biopsies of patient with Crohn's disease after 24 hrs by Etest antibiotic concentration gradient method
Format: functional
measurement_conditions: isolate HM419, 24 h
readout_type: MIC

{"columns": ["chemical_structure", "observed_value"],
 "data": [
  ["CN(C)[C@@H]1C(O)=C(C(N)=O)C(=O)[C@@]2(O)C(O)=C3C(=O)c4c(O)cccc4[C@@](C)(O)[C@H]3C[C@@H]12", "≤ 4 µg/mL"],
  ["CC[C@H]1OC(=O)[C@H](C)[C@@H](O[C@H]2C[C@@](C)(OC)[C@@H](O)[C@H](C)O2)[C@H](C)[C@@H](O[C@@H]2O[C@H](C)C[C@H](N(C)C)[C@H]2O)[C@](C)(O)C[C@@H](C)CN(C)[C@H](C)[C@@H](O)[C@]1(C)O", "≤ 2 µg/mL"],
  ["CO[C@H]1/C=C/O[C@@]2(C)Oc3c(C)c(O)c4c(O)c(c(/C=N/N5CCN(C)CC5)c(O)c4c3C2=O)NC(=O)/C(C)=C\\C=C\\[C@H](C)[C@H](O)[C@@H](C)[C@@H](O)[C@@H](C)[C@H](OC(C)=O)[C@@H]1C", "≥ 4 µg/mL"],
  ["COc1cc(Cc2cnc(N)nc2N)cc(OC)c1OC", "≤ 4 µg/mL"],
  ["O=C(O)c1cn(C2CC2)c2cc(N3CCNCC3)c(F)cc2c1=O", "≤ 1 µg/mL"],
  ["CC[C@H]1OC(=O)[C@H](C)[C@@H](O[C@H]2C[C@@](C)(OC)[C@@H](O)[C@H](C)O2)[C@H](C)[C@@H](O[C@@H]2O[C@H](C)C[C@H](N(C)C)[C@H]2O)[C@](C)(OC)C[C@@H](C)C(=O)[C@H](C)[C@@H](O)[C@]1(C)O", "≥ 16 µg/mL"]
]}

###

Tested on: Escherichia coli
assay_comment: Antibacterial activity against gentamicin-treated internalized Escherichia coli isolate HM580 in mouse J774A1 cells isolated from colonic mucosal biopsies of patient with Crohn's disease assessed as intracellular killing of bacteria at 10% compound Cmax after 3 hrs
Assay type: functional, J774.A1

{"columns": ["compound", "Activity, %"],
 "data": [
  ["CC1(C)S[C@@H]2[C@H](NC(=O)[C@H](N)c3ccccc3)C(=O)N2[C@H]1C(=O)O [AMPICILLIN]", 9.6],
  ["CC[C@H]1OC(=O)[C@H](C)[C@@H](O[C@H]2C[C@@](C)(OC)[C@@H](O)[C@H](C)O2)[C@H](C)[C@@H](O[C@@H]2O[C@H](C)C[C@H](N(C)C)[C@H]2O)[C@](C)(OC)C[C@@H](C)C(=O)[C@H](C)[C@@H](O)[C@]1(C)O [CLARITHROMYCIN]", 57.5],
  ["CN(C)[C@@H]1C(O)=C(C(N)=O)C(=O)[C@@]2(O)C(O)=C3C(=O)c4c(O)cccc4[C@@](C)(O)[C@H]3C[C@@H]12 [TETRACYCLINE]", 62.4],
  ["COc1cc(Cc2cnc(N)nc2N)cc(OC)c1OC [TRIMETHOPRIM]", 46.9]
]}
